Task for the reader: assign each of the following compounds its reported inhibition at 10 µM.
# Test system: HS 578T
# Assay: NCI 60 cell one-dose screening (SRB)
# Type: cell-based
# Experimental Conditions: Homo sapiens, Breast Cancer, single dose 10 µM, 48 h, read-out: Percentage of cellular growth inhibition
Note: unit % is implicit; provide only the numeric part.

Qu. May I ask what inhibition at 10 µM has been recorded for NC(=S)Nc1cccc(NC(N)=S)c1 ?
Ans. -5

Qu. May I ask what inhibition at 10 µM has been recorded for Fc1ccc(-c2csc(Nc3cccc(Nc4nc(-c5ccc(F)cc5)cs4)c3)n2)cc1 ?
Ans. 30.7

Qu. May I ask what inhibition at 10 µM has been recorded for Fc1ccc(-c2cs/c(=N\c3ccccc3)n2-c2cccc(-n3c(-c4ccc(F)cc4)cs/c3=N\c3ccccc3)c2)cc1 ?
Ans. 13.4

Qu. May I ask what inhibition at 10 µM has been recorded for Clc1ccc(-c2cs/c(=N\c3ccccc3)n2-c2cccc(-n3c(-c4ccc(Cl)cc4)cs/c3=N\c3ccccc3)c2)cc1 ?
Ans. 10.4

Qu. May I ask what inhibition at 10 µM has been recorded for S=C(Nc1ccccc1)Nc1cccc(NC(=S)Nc2ccccc2)c1 ?
Ans. 3.9

Qu. May I ask what inhibition at 10 µM has been recorded for Cc1csc(Nc2cccc(Nc3nc(C)cs3)c2)n1 ?
Ans. 7.9

Qu. May I ask what inhibition at 10 µM has been recorded for c1ccc(-c2csc(Nc3cccc(Nc4nc(-c5ccccc5)cs4)c3)n2)cc1 ?
Ans. 43.5

Qu. May I ask what inhibition at 10 µM has been recorded for CC(=O)c1sc(Nc2cccc(Nc3nc(C)c(C(C)=O)s3)c2)nc1C ?
Ans. 47.3

Qu. May I ask what inhibition at 10 µM has been recorded for Cc1nc(Nc2cccc(Nc3nc(C)c(N=Nc4ccccc4)s3)c2)sc1N=Nc1ccccc1 ?
Ans. 19.8

Qu. May I ask what inhibition at 10 µM has been recorded for CCOC(=O)c1sc(Nc2cccc(Nc3nc(C)c(C(=O)OCC)s3)c2)nc1C ?
Ans. 14.7

Qu. May I ask what inhibition at 10 µM has been recorded for Clc1ccc(-c2csc(Nc3cccc(Nc4nc(-c5ccc(Cl)cc5)cs4)c3)n2)cc1 ?
Ans. 29.5

Qu. May I ask what inhibition at 10 µM has been recorded for c1ccc(/N=c2\scc(-c3ccccc3)n2-c2cccc(-n3c(-c4ccccc4)cs/c3=N\c3ccccc3)c2)cc1 ?
Ans. 4.2

These entries and their values trace back to paper PMC9897788.
